Biological target: T1, human CD86-murine Ig fusion protein (human)
T1 construct: Bought (Ancell #509-820); also called hCD86-mIg
T1 chain: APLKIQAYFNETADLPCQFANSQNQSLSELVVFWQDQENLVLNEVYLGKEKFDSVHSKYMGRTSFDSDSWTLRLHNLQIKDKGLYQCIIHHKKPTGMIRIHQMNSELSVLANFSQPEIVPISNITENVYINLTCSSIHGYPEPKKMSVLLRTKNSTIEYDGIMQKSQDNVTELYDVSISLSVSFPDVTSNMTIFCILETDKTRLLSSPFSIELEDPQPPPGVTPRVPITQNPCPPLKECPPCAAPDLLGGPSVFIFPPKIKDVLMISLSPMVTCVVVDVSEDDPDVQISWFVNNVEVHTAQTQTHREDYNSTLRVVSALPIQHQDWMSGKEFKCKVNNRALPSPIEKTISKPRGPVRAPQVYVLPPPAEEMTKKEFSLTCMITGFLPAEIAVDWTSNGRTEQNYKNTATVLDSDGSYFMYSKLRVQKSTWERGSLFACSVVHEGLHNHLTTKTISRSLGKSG
Assay: SPR Biacore, hCD86-mIg captured
TEST READOUT: Kd

[
  {
    "BINDER": "D3-33-IgG2 (Fc fusion) MHVAQPAVVLASSRGIASFVCEYESPGKANEIRVTVLRKADSQVTEVCAMTYMKEDELTFLDDPSCTGTFSGNQVNLTIQGLRAADTGLYICKVELMYPPPYYLGIGNGTQIYVIDPEPCPDSDERKCCVECPPCPAPPVAGPSVFLFPPKPKDTLMISRTPEVTCVVVDVSHEDPEVQFNWYVDGVEVHNAKTKPREEQFNSTFRVVSVLTVVHQDWLNGKEYKCKVSNKGLPAPIEKTISKTKGQPREPQVYTLPPSREEMTKNQVSLTCLVKGFYPSDIAVEWESNGQPENNYKTTPPMLDSDGSFFLYSKLTVDKSRWQQGNVFSCSVMHEALHNHYTQKSLSLSPG",
    "OBSERVED": "< 0.131 nM"
  }
]

Next, consider the following binder.
Query: Name the recorded Kd of the binder listed here: D3-3-IgG2 (Fc fusion, also called D3-03-IgG2) MHVAQPAVVLASSRGIASFVCEYESPGKANEVRVTVLRQAGSQVTEVCAMTYMKGDELTFLDDPSCTGTFSGNQVNLTIQGLRAADTGLYICKVELMYPPPYYLGFGNGTQIYVIDPEPCPDSDERKCCVECPPCPAPPVAGPSVFLFPPKPKDTLMISRTPEVTCVVVDVSHEDPEVQFNWYVDGVEVHNAKTKPREEQFNSTFRVVSVLTVVHQDWLNGKEYKCKVSNKGLPAPIEKTISKTKGQPREPQVYTLPPSREEMTKNQVSLTCLVKGFYPSDIAVEWESNGQPENNYKTTPPMLDSDGSFFLYSKLTVDKSRWQQGNVFSCSVMHEALHNHYTQKSLSLSPG
Reply: 0.131 to 0.262 nM

All values here come from patent US20110177071A1.
